test: Area under curve after intravenous administration at 3 mg/kg; assay type: ADME, organism-based; set-up: dose 3 mg/kg, route intravenous; conditions: rat, in vivo
Observed property: AUC (µg·h/mL)

As a guide, the following entries are already answered.
compound=O=C(O)COC[C@H](O)[C@H](O)/C=C/C=C/C=C/C=C/[C@H](O)COc1ccc(F)cc1 quantity_unit=µg·h/mL reported_result=1
compound="COC(=O)CCCC(O)C(O)/C=C/C=C/C=C/C=C/[C@H](O)COc1ccc(F)cc1 (single isomer, unassigned)" quantity_unit=µg·h/mL reported_result=1

[I] O=C(O)CCC[C@H](O)[C@H](O)/C=C/C=C/C#C/C=C/[C@@H](O)COc1ccc(F)cc1
[II] O=C(O)COC[C@H](O)[C@H](O)/C=C/C=C/C#C/C=C/[C@H](O)COc1ccc(F)cc1
[III] O=C(O)CCCC(O)C(O)/C=C/C=C/C=C/C=C/[C@H](O)COc1ccc(F)cc1 (single isomer, unassigned)
Rank order required: AUC, descending. Please reply with the labels ordered as requested. Many thanks.
II, III, I

* * *

assay: Tmax was measured in rats after peroral administration at 5 mg/kg; assay type: ADME, organism-based; set-up: dose 5 mg/kg, route oral; conditions: rat, in vivo, po
Observed property: Tmax (min)

Answered cases to consult:
molecule=O=C(O)CCC[C@H](O)[C@H](O)/C=C/C=C/C#C/C=C/[C@@H](O)COc1ccc(F)cc1 observed_property=Tmax reported_result=30
molecule="O=C(O)CCCC(O)C(O)/C=C/C=C/C=C/C=C/[C@H](O)COc1ccc(F)cc1 (single isomer, unassigned)" observed_property=Tmax reported_result=60
molecule="COC(=O)CCCC(O)C(O)/C=C/C=C/C=C/C=C/[C@H](O)COc1ccc(F)cc1 (single isomer, unassigned)" observed_property=Tmax reported_result=30

[P] O=C(O)COC[C@H](O)[C@H](O)/C=C/C=C/C#C/C=C/[C@H](O)COc1ccc(F)cc1
[Q] O=C(O)COC[C@H](O)[C@H](O)/C=C/C=C/C=C/C=C/[C@H](O)COc1ccc(F)cc1
Which has the higher Tmax, P or Q ? // return label of chosen record
P

* * *

assay: Half life period of compound was determined after peroral administration; assay type: ADME, organism-based; conditions: rat, in vivo, po
Observed property: half-life (h)

Consider the following illustrative entries.
compound=O=C(O)COC[C@H](O)[C@H](O)/C=C/C=C/C#C/C=C/[C@H](O)COc1ccc(F)cc1 observed_property=half-life reported_result=2.2
compound=O=C(O)COC[C@H](O)[C@H](O)/C=C/C=C/C=C/C=C/[C@H](O)COc1ccc(F)cc1 observed_property=half-life reported_result=1.1

[A] O=C(O)CCCC(O)C(O)/C=C/C=C/C=C/C=C/[C@H](O)COc1ccc(F)cc1 (single isomer, unassigned)
[B] COC(=O)CCCC(O)C(O)/C=C/C=C/C=C/C=C/[C@H](O)COc1ccc(F)cc1 (single isomer, unassigned)
[C] O=C(O)CCC[C@H](O)[C@H](O)/C=C/C=C/C#C/C=C/[C@@H](O)COc1ccc(F)cc1
# sort list by recorded half-life, greatest to least Output the labels ranked as instructed.
C, A, B
(C: 1.8 h, A: 1.1 h, B: 0.5 h)

* * *

experiment: Half life period of compound was determined after peroral administration at 2 mg/kg; format: ADME, organism-based, Canis lupus familiaris; set-up: dose 2 mg/kg, route oral; settings: dog, in vivo, po
Observed property: half-life (min)
Report as a plain number; the unit min is understood.

If you can, please state the reported half-life value of O=C(O)COC[C@H](O)[C@H](O)/C=C/C=C/C#C/C=C/[C@H](O)COc1ccc(F)cc1 .
192

The measured values listed here are drawn from ChEMBL document CHEMBL1149150.
